Test system: endothelial cells of the blood capillaries
Test: Erythematous response / vasodilation at the site of topical application
quantity: Erythematous Response

[[record]]
compound = "COC(=O)c1cccnc1"
testvalue = "Yes"

[[record]]
compound = "CCCCCCCCCCCCOC(=O)c1cccnc1"
testvalue = "No"

[[record]]
compound = "CCCCCCCCCCCCCCCCCCOC(=O)c1cccnc1"
testvalue = "No"

[[record]]
compound = "CCCCCCCCCCCCCCCOC(=O)c1cccnc1"
testvalue = "No"

[[record]]
compound = "CCCCCCCCCCCCCOC(=O)c1cccnc1"
testvalue = "No"

[[record]]
compound = "CCCCOC(=O)c1cccnc1"
testvalue = "Yes"

[[record]]
compound = "CCCCCCCCCCCCCCOC(=O)c1cccnc1"
testvalue = "No"

[[record]]
compound = "CCCCCCCCCCCCCCCCOC(=O)c1cccnc1"
testvalue = "No"

[[record]]
compound = "CCCCCCCCOC(=O)c1cccnc1 [8 carbons, octyl nicotinate]"
testvalue = "Yes"

